All values here come from patent US5627181A.

Lab note: MIC readings collected with Staph. 9TV for the following compounds.
measuredAttribute: MIC (µg/mL)

CC(=O)NC[C@H]1CN(c2ccc(-c3ccc(F)cc3)cn2)C(=O)O1 = 1
CC(=O)NC[C@H]1CN(c2ccc3cccc(-c4ccc(C)cc4)c3n2)C(=O)O1 = 1
CC(=O)NC[C@H]1CN(c2ccc(-c3cccc([N+](=O)[O-])c3)cn2)C(=O)O1 = 1
CC(=O)NC[C@H]1CN(c2ccc(-c3ccc(C(C)=O)s3)cn2)C(=O)O1 = 0.25
CC(=O)NC[C@H]1CN(c2ccc(-c3ccc(F)c(Cl)c3)cn2)C(=O)O1 = 2

* * *

Test system: Staph. 48N
Entries and their MIC
measuredAttribute: MIC (µg/mL)

CC(=O)NC[C@H]1CN(c2ccc(-c3cccc(C(C)=O)c3)cn2)C(=O)O1 [Example 42] = 4
CC(=O)NC[C@H]1CN(c2ccc3cccc(-c4ccc(C)cc4)c3n2)C(=O)O1 [Example 59] = 2
CC(=O)NC[C@H]1CN(c2ccc3ncccc3c2)C(=O)O1 [Example 29] = 8
CC(=O)NC[C@H]1CN(c2ccc(-c3ccc(C)cc3)cn2)C(=O)O1 [Example 36] = 4
CC(=O)NC[C@H]1CN(c2ccc(-c3cccc(C=O)c3)cn2)C(=O)O1 [Example 39] = 0.5
CC(=O)NC[C@H]1CN(c2ccc(-c3ccc(F)c(Cl)c3)cn2)C(=O)O1 [Example 46] = 2
CC(=O)NC[C@H]1CN(c2ccc(-c3cccc([N+](=O)[O-])c3)cn2)C(=O)O1 [Example 48] = 2
CC(=O)NC[C@H]1CN(c2ccc(-c3ccc(C=O)cc3)cn2)C(=O)O1 [Example 40] = 1
CC(=O)NC[C@H]1CN(c2ccc(-c3ccccc3)cn2)C(=O)O1 [Example 37] = 1
